The origin of these recorded values is patent US12624118B2.

Test: Thermal stability by differential scanning calorimetry (DSC)
Assay type: physicochemical
Details: HBS, 0.5 mg/mL; 25° C. to 100° C. at 1° C./minute
Measure: Tmonset (° C.) By Differential Scanning Calorimetry (DSC) (°C)
Numbers only, in °C.

Here's what some known entries look like.
Molecule: CD58_IgV: IgV domain (domain 1) of human CD58, without stabilizing disulfide (protein) SQQIYGVVYGNVTFHVPSNVPLKEVLWKKQKDKVAELENSEFRAFSSFKNRVYLDTVSGSLTIYNLTSSDEDEYEMESPNITDTMKFFLYVLESGGGGSHHHHHHHH
Unit Symbol: °C
Value Measured: 46.3
//
Molecule: IgV V45C_M114C: CD58 domain 1 with V45 and M114 replaced by cysteines to form a disulfide bridge (protein) SQQIYGVVYGNVTFHCPSNVPLKEVLWKKQKDKVAELENSEFRAFSSFKNRVYLDTVSGSLTIYNLTSSDEDEYEMESPNITDTCKFFLYVLESGGGGSHHHHHHHH
Unit Symbol: °C
Value Measured: 49.6

Turning to the following molecule.
## Task Tell me Tmonset (° C.) By Differential Scanning Calorimetry (DSC) reported for IgV V54C_G88C: CD58 domain 1 with V54 and G88 replaced by cysteines to form a disulfide bridge (protein) SQQIYGVVYGNVTFHVPSNVPLKECLWKKQKDKVAELENSEFRAFSSFKNRVYLDTVSCSLTIYNLTSSDEDEYEMESPNITDTMKFFLYVLESGGGGSHHHHHHHH
## Result 66.7
